Provenance of the data: ChEMBL document CHEMBL3507680

Attribute: cytotoxicity at 70.5 h
# METHOD_DESCRIPTION: Human HepG2 cell viability assay in 384 well format
# Format: toxicity, cell-based
# Set-up: dose 125 nL, time 70.5 hour; concentration not given beside the values
# CONDITION_DESCRIPTION: HepG2 cells, read-out: Inhibition

COMPOUND	READOUT_LABEL	RESULT
CCCOC1CCCN(c2nc(COC)nc3c2cnn3C)C1 (stereo not drawn)	cytotoxicity at 70.5 h	-19%

**Q:** Query: cytotoxicity at 70.5 h; subject: CSCCCN1CCn2nc(CNC(=O)N(C)C)cc2C1
**A:** 0.863%

**Q:** Query: cytotoxicity at 70.5 h; subject: COc1ccc(-c2nc3c([nH]2)CCNC3C(=O)O)c2ccc(C)nc12 (stereo not drawn)
**A:** 12.4%

**Q:** Query: cytotoxicity at 70.5 h; subject: CN(C)CC(=O)N1CCN(CC(O)c2ccc(F)cc2)CC1 (stereo not drawn)
**A:** -1.76%

**Q:** Query: cytotoxicity at 70.5 h; subject: COCCN1CCN(C(C(=O)O)c2ccc(SC)cc2)CC1 (stereo not drawn)
**A:** -5.21%

**Q:** Query: cytotoxicity at 70.5 h; subject: Cc1cc(C)n(CC2CCCN2C(=O)c2cncnc2C)n1 (stereo not drawn)
**A:** 1.29%

**Q:** Query: cytotoxicity at 70.5 h; subject: Cc1nc(N2CCOCC2)nc2c1CCN(C(=O)C1CCCCC1)CC2
**A:** 0.0722%

**Q:** Query: cytotoxicity at 70.5 h; subject: Cc1cc(C(F)(F)F)nc(CNC(=O)CCn2cccn2)n1
**A:** -6.34%

**Q:** Query: cytotoxicity at 70.5 h; subject: CN1CCN(CC(C)(C)C)CC1CCO (stereo not drawn)
**A:** -3.64%

**Q:** Query: cytotoxicity at 70.5 h; subject: CC(=O)NCc1ccc(S(=O)(=O)NC(=O)c2ccc3c(c2)CCO3)s1
**A:** -2.05%

**Q:** Query: cytotoxicity at 70.5 h; subject: Cc1cc(C(=O)N2CCN(C)CC2)nn1CC(=O)NCc1ccccn1
**A:** -8.07%

**Q:** Query: cytotoxicity at 70.5 h; subject: Cc1noc(C(C)C)c1C(=O)NCC1CCN(c2ccccc2)C1 (stereo not drawn)
**A:** 6.36%

**Q:** Query: cytotoxicity at 70.5 h; subject: c1cnc(N2CCO[C@H]3CN(Cc4cc[nH]n4)C[C@H]32)cn1
**A:** -7.22%

**Q:** Query: cytotoxicity at 70.5 h; subject: Cc1occc1C(=O)N1C[C@H](Oc2ccccn2)[C@H]2OCCC[C@H]21
**A:** -10.8%

**Q:** Query: cytotoxicity at 70.5 h; subject: Cc1ccc(C)c(CC(=O)Nc2cnccc2SCCCO)c1
**A:** 23.5%

**Q:** Query: cytotoxicity at 70.5 h; subject: Cn1cc(NC(=O)NCc2ccoc2)ccc1=O
**A:** -3.69%
